Molecular target: EGFR (Homo sapiens)
Construct: purchased Carna Biosciences, Inc; host or cells: insect cell expression system
Sequence (P00533 25-1210): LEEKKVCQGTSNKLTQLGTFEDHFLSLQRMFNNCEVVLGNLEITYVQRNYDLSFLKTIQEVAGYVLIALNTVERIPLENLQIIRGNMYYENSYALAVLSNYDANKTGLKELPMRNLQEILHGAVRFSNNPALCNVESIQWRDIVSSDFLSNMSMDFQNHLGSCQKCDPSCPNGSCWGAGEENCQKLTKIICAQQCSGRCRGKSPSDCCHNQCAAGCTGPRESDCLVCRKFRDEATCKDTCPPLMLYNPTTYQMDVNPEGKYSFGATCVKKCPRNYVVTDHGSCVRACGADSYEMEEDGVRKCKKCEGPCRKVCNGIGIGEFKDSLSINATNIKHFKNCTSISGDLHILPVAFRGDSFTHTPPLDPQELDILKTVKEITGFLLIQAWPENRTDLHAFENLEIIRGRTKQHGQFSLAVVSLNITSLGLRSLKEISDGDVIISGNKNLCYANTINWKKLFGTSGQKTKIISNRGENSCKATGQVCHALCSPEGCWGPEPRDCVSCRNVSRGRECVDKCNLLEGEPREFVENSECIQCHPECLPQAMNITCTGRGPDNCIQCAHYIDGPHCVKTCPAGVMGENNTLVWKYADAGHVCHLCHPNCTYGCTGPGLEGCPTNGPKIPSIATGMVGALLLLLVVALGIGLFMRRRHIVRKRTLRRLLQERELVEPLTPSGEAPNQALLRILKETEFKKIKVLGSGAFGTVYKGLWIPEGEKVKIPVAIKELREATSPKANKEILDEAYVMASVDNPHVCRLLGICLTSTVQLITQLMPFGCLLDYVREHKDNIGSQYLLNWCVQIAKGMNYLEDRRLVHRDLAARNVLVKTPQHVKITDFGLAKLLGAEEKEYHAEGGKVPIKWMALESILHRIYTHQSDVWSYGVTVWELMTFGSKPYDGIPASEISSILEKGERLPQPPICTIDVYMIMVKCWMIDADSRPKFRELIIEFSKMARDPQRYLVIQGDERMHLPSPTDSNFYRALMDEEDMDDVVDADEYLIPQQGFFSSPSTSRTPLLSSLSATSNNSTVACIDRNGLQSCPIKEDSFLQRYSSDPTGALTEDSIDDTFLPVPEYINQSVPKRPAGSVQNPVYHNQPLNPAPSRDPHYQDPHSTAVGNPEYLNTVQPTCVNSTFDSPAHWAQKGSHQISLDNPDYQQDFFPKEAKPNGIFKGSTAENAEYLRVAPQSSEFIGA
Assay: Enzyme inhibitory activity on EGFR (time resolution fluorescence, biotinylated poly-Glu-Tyr substrate)
Type: biochemical
Details: EGFR purified from insect cell expression system; ATP solution 125 μM; room temperature, 60 minutes
reported_endpoint: IC50 (nM)

CC#C/C(=N\OCCNC)c1ccc2ncnc(Nc3ccc(OCc4cccc(F)c4)c(Cl)c3)c2c1 ... 33
CC#C/C(=N\OCCN1CCCC1)c1ccc2ncnc(Nc3ccc(OCc4cccc(F)c4)c(Cl)c3)c2c1 ... 43

(P) CC#C/C(=N\OC[C@@H]1C[C@H](O)CN1)c1ccc2ncnc(Nc3ccc(OCc4cccc(F)c4)c(Cl)c3)c2c1
(Q) CC#C/C(=N\OCCNCCNC(C)=O)c1ccc2ncnc(Nc3ccc(OCc4cccc(F)c4)c(Cl)c3)c2c1
Challenge: Please choose the item with the lower IC50 value from this pair: P and Q Please reply using the label of the selected record.
Response given: P
